target system: KRAS G12V (Homo sapiens, UniProt P01116+P62937, G12V)
Sequence (P01116 1-169 isoform P01116-2 G12V limits assumed, one chain of several): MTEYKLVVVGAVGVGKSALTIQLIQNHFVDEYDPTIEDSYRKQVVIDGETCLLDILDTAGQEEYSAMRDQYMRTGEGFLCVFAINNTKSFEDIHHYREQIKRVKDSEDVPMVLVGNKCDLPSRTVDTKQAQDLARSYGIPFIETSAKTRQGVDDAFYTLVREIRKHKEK
measurement description: Disruption of BRAF RBD interaction with Ras (FRET / MOA assay, with Cyclophilin A)
Type: biochemical
stated conditions: KRAS G12V; read-out: KRAS G12V FRET data IC50
Excerpt: This protocol may also be executed substituting other Ras proteins or nucleotides. The purpose of this biochemical assay was to measure the ability of test compounds to facilitate ternary complex formation between a nucleotide-loaded K-Ras isoform and Cyclophilin A; the resulting ternary complex disrupts binding to a BRAF^RBD construct, inhibiting K-Ras signaling through a RAF effector. Data is reported as IC50 values. […]
pIC50: −log10 of the molar value.
Would you mind telling me the reported pIC50 of each entry?

A selection of reference data follows.
molecule: CCn1c(-c2cccnc2[C@H](C)OC)c2c3cc(ccc31)-c1cc(O)cc(c1)C[C@H](NC(=O)[C@H](C(C)C)N(C)C(=O)[C@@H]1CNC[C@@H]1C)C(=O)N1CCC[C@H](N1)C(=O)OCC(C)(C)C2 [Example A128]
pIC50: 6.00 to 7.00

molecule: CCn1c(-c2cccnc2[C@H](C)OC)c2c3cc(ccc31)-c1csc(n1)C[C@H](NC(=O)[C@H](C(C)C)N(C)C(=O)N(C)C[C@@H]1CCCN1C)C(=O)N1CCC[C@H](N1)C(=O)OCC(C)(C)C2 [Example A504]
pIC50: 5.00 to 6.00

molecule: CCn1c(-c2cccnc2[C@H](C)OC)c2c3cc(ccc31)-c1csc(n1)C[C@H](NC(=O)[C@H](C(C)C)N(C)C(=O)N1CC(CN(C)C)(OC)C1)C(=O)N1CCC[C@H](N1)C(=O)OCC(C)(C)C2 (atropisomer, axis not shown) [Example A575]
pIC50: 5.00 to 6.00

Please state pIC50 for every molecule in the list that follows.
1. C=CC(=O)N1CC[C@H](C(=O)N(C)[C@H](C(=O)N[C@H]2Cc3cc(O)cc(c3)-c3ccc4c(c3)c(c(-c3cnccc3C)n4CC)CC(C)(C)COC(=O)[C@@H]3CCCN(N3)C2=O)C(C)C)C1 [Example A077]
2. CCn1c(-c2cccnc2[C@H](C)OC)c2c3cc(ccc31)-c1cc(O)cc(c1)C[C@H](NC(=O)[C@H](C(C)C)N(C)C(=O)C1NCCC13CC3)C(=O)N1CCC[C@H](N1)C(=O)OCC(C)(C)C2 (stereo partly shown) [Example A228]
3. C=CC(=O)N1CCC(C(=O)N(C)[C@H](C(=O)N[C@H]2Cc3cc(O)cc(c3)-c3ccc4c(c3)c(c(-c3ccccc3CN(C)C)n4CC)CC(C)(C)COC(=O)[C@@H]3CCCN(N3)C2=O)C(C)C)CC1 [Example A033]
4. C=CC(=O)N1CC[C@H](C(=O)N(C)[C@H](C(=O)N[C@H]2Cc3cc(O)cc(c3)-c3ccc4c(c3)c(c(-c3ccccc3N3CCOCC3)n4CC)CC(C)(C)COC(=O)[C@@H]3CCCN(N3)C2=O)C(C)C)C1 [Example A026]
5. C=CC(=O)N1CC[C@H](C(=O)N(C)[C@H](C(=O)N[C@H]2Cc3cc(O)cc(c3)-c3ccc4c(c3)c(c(-c3cccnc3N3CC(OC)C3)n4CC)CC(C)(C)COC(=O)[C@@H]3CCCN(N3)C2=O)C(C)C)C1 [Example A060]
6. CCn1c(-c2cccnc2[C@H](C)OC)c2c3cc(ccc31)-c1cc(O)cc(c1)C[C@H](NC(=O)[C@H](C(C)C)N(C)C(=O)C1CN(C)C1)C(=O)N1CCC[C@H](N1)C(=O)OCC(C)(C)C2 (atropisomer, axis not shown) [Example A124]
7. CCN(C(=O)N(C)[C@H](C(=O)N[C@H]1Cc2nc(cs2)-c2ccc3c(c2)c(c(-c2cccnc2[C@H](C)OC)n3CC)CC(C)(C)COC(=O)[C@@H]2CCCN(N2)C1=O)C(C)C)C(C)C [Example A333]
8. C=CC(=O)N1CC[C@H](C(=O)N(C)[C@H](C(=O)N[C@H]2Cc3cc(O)cc(c3)-c3ccc4c(c3)c(c(-c3c(F)cccc3CCOC)n4CC)CC(C)(C)COC(=O)[C@@H]3CCCN(N3)C2=O)C(C)C)C1 [Example A025]

Data returned:
1: 6.00 to 7.00; 2: 6.00 to 7.00; 3: < 5.00; 4: < 5.00; 5: 5.00 to 6.00; 6: 6.00 to 7.00; 7: 6.00 to 7.00; 8: 5.00 to 6.00

Please state pIC50 for every molecule in the list that follows.
1. C=CC(=O)N1CC(OC[C@H](C(=O)N[C@H]2Cc3cc(F)cc(c3)-c3ccc4c(c3)c(c(-c3cccnc3[C@H](C)OC)n4CC)CC(C)(C)COC(=O)[C@@H]3CCCN(N3)C2=O)C(C)C)C1 (atropisomer, axis not shown) [Example A725]
2. CCn1c(-c2cccnc2[C@H](C)OC)c2c3cc(ccc31)-c1cccc(c1)C[C@H](NC(=O)[C@H](C(C)C)N(C)C(=O)[C@H]1CCN(C(C)=O)C1)C(=O)N1CCC[C@H](N1)C(=O)OCC(C)(C)C2 [Example A60]
3. CCn1c(-c2cccnc2[C@H](C)OC)c2c3cc(ccc31)-c1csc(n1)C[C@H](NC(=O)[C@H](C(C)C)N(C)C(=O)N1CC(N(C)C(=O)C#CC(C)(C)N3CCC3)C1)C(=O)N1CCC[C@H](N1)C(=O)OCC(C)(C)C2 [Example A379]
4. C=CC(=O)N1CC[C@H](C(=O)N(C)[C@H](C(=O)N[C@H]2Cc3cc(O)cc(c3)-c3ccc4c(c3)c(c(-c3ccncc3COC)n4CC)CC(C)(C)COC(=O)[C@@H]3CCCN(N3)C2=O)C(C)C)C1 [Example A091]

Data returned:
["5.00 to 6.00", "5.00 to 6.00", "6.00 to 7.00", "6.00 to 7.00"]

Data request: // fetch pIC50 for C=CC(=O)N1CCC2(C1)CN(C(=O)N(C)[C@H](C(=O)N[C@H]1Cc3nc(cs3)-c3ccc4c(c3)c(c(-c3cccnc3[C@H](C)OC)n4CC(F)(F)F)CC(C)(C)COC(=O)C3CCCN(N3)C1=O)C(C)C)C2 (stereo partly shown) [Example A603] ; system: KRAS G12V (Homo sapiens, UniProt P01116+P62937, G12V)
Data returned: 6.00 to 7.00

---

Would you mind telling me the reported IC50 of each entry?
target system: NRAS G12C (Homo sapiens, UniProt P01111+P62937, G12C)
Sequence (P01111 whole entry G12C, one chain of several): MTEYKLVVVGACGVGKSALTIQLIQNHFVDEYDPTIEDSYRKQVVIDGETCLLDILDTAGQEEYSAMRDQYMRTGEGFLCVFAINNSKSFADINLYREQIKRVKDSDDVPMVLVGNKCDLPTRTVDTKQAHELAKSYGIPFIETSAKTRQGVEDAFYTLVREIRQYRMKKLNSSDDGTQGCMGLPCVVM
measurement description: Disruption of BRAF RBD interaction with Ras (FRET / MOA assay, with Cyclophilin A)
Format: biochemical
stated conditions: NRAS G12C; read-out: NRAS G12C FRET data IC50

Please state IC50 for every compound in the list that follows.
1. CCn1c(-c2cccnc2[C@H](C)OC)c2c3cc(ccc31)-c1cc(O)cc(c1)C[C@H](NC(=O)[C@H](C(C)C)N(C)C(=O)[C@H]1CCCNC1)C(=O)N1CCC[C@H](N1)C(=O)OCC(C)(C)C2 [Example A243]
2. C=CC(=O)N(C)[C@H]1CN(C(=O)N(C)[C@H](C(=O)N[C@H]2Cc3nc(cs3)-c3ccc4c(c3)c(c(-c3cccnc3[C@H](C)OC)n4CC)CC(C)(C)COC(=O)C3CCCN(N3)C2=O)C(C)C)C[C@H]1F (stereo partly drawn) [Example A631]
3. CCn1c(-c2cccnc2[C@H](C)OC)c2c3cc(ccc31)-c1cc(O)cc(c1)C[C@H](NS(=O)(=O)CC1CC1)C(=O)N1CCC[C@H](N1)C(=O)OCC(C)(C)C2 [Example A200]

Data returned:
["0.01 to 0.1 µM", "0.01 to 0.1 µM", "> 10 µM"]

---

target system: KRAS G13D (Homo sapiens, UniProt P01116+P62937, G13D)
Sequence (P01116 1-169 isoform P01116-2 G13D limits assumed): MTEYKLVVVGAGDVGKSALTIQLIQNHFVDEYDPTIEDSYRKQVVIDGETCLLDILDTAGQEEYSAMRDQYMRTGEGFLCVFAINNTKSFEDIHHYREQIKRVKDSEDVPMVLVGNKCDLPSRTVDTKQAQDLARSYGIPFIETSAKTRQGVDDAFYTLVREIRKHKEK
Sequence (P62937 whole entry): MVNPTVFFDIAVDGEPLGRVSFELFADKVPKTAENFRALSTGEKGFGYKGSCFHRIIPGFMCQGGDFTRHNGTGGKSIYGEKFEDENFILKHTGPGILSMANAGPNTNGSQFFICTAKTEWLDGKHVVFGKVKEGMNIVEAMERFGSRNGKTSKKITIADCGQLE
measurement description: Ras-Raf disruption / FRET / MOA assay (BRAF RBD)
Type: biochemical
stated conditions: KRAS G13D FRET data IC50, Ras-Raf disruption, with Cyclophilin A
pIC50: −log10 of the molar value.
Would you mind telling me the reported pIC50 of each entry?

A selection of reference data follows.
molecule: CCn1c(-c2cccnc2[C@H](C)OC)c2c3cc(ccc31)-c1cc(O)cc(c1)C[C@H](NC(=O)[C@H](C(C)C)N(C)C(=O)CN(C)C(=O)[C@H]1N[C@@H]1C1CC1)C(=O)N1CCC[C@H](N1)C(=O)OCC(C)(C)C2
pIC50: 7.00 to 8.00
--
molecule: CCn1c(-c2cccnc2[C@H](C)OC)c2c3cc(ccc31)-c1cc(O)cc(c1)C[C@H](NC(=O)[C@H](C1CCCC1)N(C)C(=O)CN(C)C(=O)[C@@H]1N[C@@H]1C1(OC)CC1)C(=O)N1CCC[C@H](N1)C(=O)OCC(C)(C)C2 (single isomer, unassigned)
pIC50: 6.00 to 7.00
--
molecule: CCn1c(-c2cccnc2[C@H](C)OC)c2c3cc(ccc31)-c1cc(O)cc(c1)C[C@H](NC(=O)[C@H](C(C)C)N(C)C(=O)[C@H]1CCCN1C(=O)[C@H]1CN1)C(=O)N1CCC[C@H](N1)C(=O)OCC(C)(C)C2
pIC50: 6.00 to 7.00
--
molecule: CCn1c(-c2cccnc2[C@H](C)OC)c2c3cc(ccc31)-c1cc(O)cc(c1)C[C@H](NC(=O)[C@H](C(C)C)N(C)C(=O)CN(C)C(=O)[C@H]1CN1CCCOC(C)=O)C(=O)N1CCC[C@H](N1)C(=O)OCC(C)(C)C2 (stereo partly drawn)
pIC50: 6.00 to 7.00
--
molecule: CCn1c(-c2cnccc2COC)c2c3cc(ccc31)-c1cc(O)cc(c1)C[C@H](NC(=O)[C@H](C(C)C)N(C)C(=O)CN(C)C(=O)[C@@H]1N[C@@H]1C(=O)OC)C(=O)N1CCC[C@H](N1)C(=O)OCC(C)(C)C2
pIC50: 6.00 to 7.00

We next turn to a different molecule, shown below.
Data request: Provide measured pIC50 value, entry: CCn1c(-c2cccnc2[C@H](C)OC)c2c3cc(ccc31)-c1cc(O)cc(c1)C[C@H](NC(=O)[C@H](C(C)C)N(C)C(=O)CN(C)C(=O)[C@@H]1N[C@@H]1C1CCC1)C(=O)N1CCC[C@H](N1)C(=O)OCC(C)(C)C2
Data returned: 6.00 to 7.00

Source: patent US20230233569A1
